Task for the reader: assign each of the following compounds its reported cell viability.
- System: P12-Ichikawa
- MEASUREMENT_NOTES: cell viability relative to DMSO control; higher = less cytotoxic
- CONDITION_NOTES: HPLM + 10% dialyzed FBS; 48 h; 0.0211 µM
State just the number; it will be interpreted in %.

Q) For the compound shown here, CC(NC1=CC=CC=C1)C\2=C\C(=C/N3C(=O)\C=C(/N=C23)N4CCOCC4)C (stereo not given) , give the reported cell viability.
A) 110

Q) Now consider `CC/C(=C(/c1ccc(O)cc1)c1ccc(OCCNC)cc1)c1ccccc1` .
A) 115

Q) Now consider `COc1ccc(-c2cc3nccn3c(Nc3ncccc3C(N)=O)n2)cc1OC` .
A) 112

Q) Now consider COC1=C(N2CCNC(C)C2)C(=CC3=C1N(\C=C(C(O)=O)/C3=O)C4CC4)F (stereo not given) .
A) 101

Q) Now consider `CO[C@H]1/C=C/O[C@@]2(C)Oc3c(C)c(O)c4c(O)c(c5c(nc6cc(C)ccn65)c4c3C2=O)NC(=O)/C(C)=C\C=C\[C@H](C)[C@H](O)[C@@H](C)[C@@H](O)[C@@H](C)[C@H](OC(C)=O)[C@@H]1C` .
A) 106

----------
- Test system: SEM cells
- MEASUREMENT_NOTES: cell viability relative to DMSO control; higher = less cytotoxic
- CONDITION_NOTES: RPMI 5 mM glucose + 10% dialyzed FBS; 48 h; 0.000781 µM
Task for the reader: assign each of the following compounds its reported cell viability.
State just the number; it will be interpreted in %.

Q) For the compound shown here, CC(C)C(C)/C=C/C(C)C1CCC2C3=CC=C4CC(O)CCC4(C)C3CCC21C (centres undefined) , give the reported cell viability.
A) 88

Q) Now consider `CC(=O)Nc1ccc(OC[C@](C)(O)C(=O)Nc2ccc([N+](=O)[O-])c(C(F)(F)F)c2)cc1` .
A) 79.9

Q) Now consider `O=NN(CCCl)C(=O)NCCCl` .
A) 80.1

Q) Now consider `OC(=O)C1=CC=C(NC2=NC3=C(C\N=C(/C4=CC(=CC=C34)Cl)C5=C(F)C=CC=C5F)C=N2)C=C1` .
A) 88.6

----------
Task for the reader: assign each of the following compounds its reported cell viability.
- Tested on: SEM cells
- MEASUREMENT_NOTES: cell viability relative to DMSO control; higher = less cytotoxic
- CONDITION_NOTES: RPMI 5 mM glucose + 10% dialyzed FBS; 48 h; 0.569 µM
State just the number; it will be interpreted in %.

Q) For the compound shown here, Cc1ccccc1N1C(=O)c2cc([S+](N)(=O)[O-])c(Cl)cc2NC1C (centres undefined) , give the reported cell viability.
A) 26.8

Q) Now consider `Cc1c(CN2CCN(C(=O)[C@H](C)O)CC2)sc2c(N3CCOCC3)nc(-c3cnc(N)nc3)nc12` .
A) 48.2

Q) Now consider `CC[C@H](CC[C@@H](C)[C@H]1CC[C@H]2[C@@H]3C\C=C/4C[C@@H](O)CC[C@]4(C)[C@H]3CC[C@]12C)C(C)C` .
A) 125

Q) Now consider CC(N[C@H]1C[C@@H]1c1ccccc1)c1ccc2c(c1)OCCO2 (some centres undefined) .
A) 138

----------
- System: P12-Ichikawa
- MEASUREMENT_NOTES: cell viability relative to DMSO control; higher = less cytotoxic
- CONDITION_NOTES: RPMI 5 mM glucose + 10% FBS; 48 h; 0.0632 µM
Task for the reader: assign each of the following compounds its reported cell viability.
State just the number; it will be interpreted in %.

Q) For the compound shown here, `OC1=C(O)C2=C(\C=C/C(=O)O2)C=C1` , give the reported cell viability.
A) 99.4

Q) Now consider CNC1CCC(N(Cc2cccc(-c3ccncc3)c2)C(=O)c2sc3ccccc3c2Cl)CC1 (stereo unspecified) .
A) 94.5

Q) Now consider `COc1ccc(C[C@@H](C)[C@@H](C)Cc2ccc(OC)c(OC)c2)cc1OC` .
A) 111

Q) Now consider `Cc1nc(NC(=O)N2CCC[C@H]2C(N)=O)sc1-c1ccnc(C(C)(C)C(F)(F)F)c1` .
A) 90.6

Q) Now consider `Cn1c(=O)c2c(ncn2C)n(C)c1=O.O=C(O)CC(O)(CC(=O)O)C(=O)O` .
A) 121

Q) Now consider `O=NN(CCCl)C(=O)NC1CCCCC1` .
A) 116

Q) Now consider CCC(C)SSc1ncc[nH]1 (stereo unspecified) .
A) 96.1

Q) Now consider `OC1=CC=C(C=C1)\C2=C\OC3=C(C=CC(=C3)O)C2=O` .
A) 100

Q) Now consider `COc1cnc(N[S+](=O)([O-])c2ccc(N)cc2)nc1` .
A) 118

Q) Now consider COc1cccc2cc(-c3nc(C4CCC(C(=O)O)CC4)n4ncnc(N)c34)[nH]c12 (stereo unspecified) .
A) 89

Q) Now consider `CC1=CC=CC=C1N2\C(=N/C3=C(C(=CC=C3)C)C2=O)C[N]4C=NC5=C4N=CN=C5N` .
A) 109

----------
- Tested on: NOMO1
- MEASUREMENT_NOTES: cell viability relative to DMSO control; higher = less cytotoxic
- CONDITION_NOTES: RPMI 5 mM glucose + 10% FBS; 48 h; 0.569 µM
ENDPOINT: cell viability (%)
State just the number; it will be interpreted in %.

Q) For the compound shown here, `ClC1=C(N\C2=N\CCN2)C3=NSN=C3C=C1` , give the reported cell viability.
A) 119

Q) Now consider `CC(C)(C)c1cc(NC(=O)Nc2ccc(-c3cn4c(n3)sc3cc(OCCN5CCOCC5)ccc34)cc2)no1` .
A) 81.4

Q) Now consider `CCCCn1c(=O)n(Cc2ccccc2F)c(=O)c2nc(Cc3ccc(NC(C)=O)cc3)[nH]c21` .
A) 83.9

Q) Now consider `CC\1=C/C=C\C=[N]1[Pt](N)(Cl)Cl` .
A) 106

Q) Now consider `CC1(C)CCC[C@]2(C)[C@H]3CC(=O)O[C@]3(C)CC[C@@H]12` .
A) 129

Q) Now consider CNC1CCC(N(Cc2cccc(-c3ccncc3)c2)C(=O)c2sc3ccccc3c2Cl)CC1 (configuration not stated) .
A) 92.4

Q) Now consider `C=C(C)[C@@H]1CC[C@]2(C(=O)O)CC[C@]3(C)[C@H](CC[C@@H]4[C@@]5(C)CC[C@H](O)C(C)(C)[C@@H]5CC[C@]43C)[C@@H]12` .
A) 119

----------
- Test system: SEM cells
- MEASUREMENT_NOTES: cell viability relative to DMSO control; higher = less cytotoxic
- CONDITION_NOTES: HPLM + 10% dialyzed FBS; 48 h; 0.00702 µM
Task for the reader: assign each of the following molecules its reported cell viability.
State just the number; it will be interpreted in %.

Q) For the molecule shown here, `CN\1C(=O)/C(=C(\N=C1N2CCCC[S+]2([O-])=O)C(=O)NCC3=CC=C(F)C=C3)O` , give the reported cell viability.
A) 104

Q) Now consider `C/C=C1\NC(=O)[C@H]2CSSCC/C=C\[C@H](CC(=O)N[C@H](C(C)C)C(=O)N2)OC(=O)[C@H](C(C)C)NC1=O` .
A) 95.1

Q) Now consider `FC(F)(F)c1ccc(/C=C/c2nc(COc3ccc(CCCCn4ccnn4)cc3)co2)cc1` .
A) 123

Q) Now consider `Oc1ccc2c3c1O[C@H]1c4[nH]c5c(c4C[C@@]4(O)[C@@H](C2)N(CC2CC2)CC[C@]314)C[C@@]1(O)[C@H]2Cc3ccc(O)c4c3[C@@]1(CCN2CC1CC1)[C@H]5O4` .
A) 101

Q) Now consider CCN(CC)CC#CCOC(=O)C(O)(c1ccccc1)C1CCCCC1 (centres undefined) .
A) 98.1

Q) Now consider `NC1(c2ccc(-c3nc4ccn5c(=O)[nH]nc5c4cc3-c3ccccc3)cc2)CCC1` .
A) 125

Q) Now consider `OC(=O)C1=CC=C(NC2=NC3=C(C\N=C(/C4=CC(=CC=C34)Cl)C5=C(F)C=CC=C5F)C=N2)C=C1` .
A) 87.5

Q) Now consider `CN(C)c1ccc(O)c2c1C[C@H]1C[C@H]3[C@H](N(C)C)C(O)=C(C(N)=O)C(=O)[C@@]3(O)C(O)=C1C2=O` .
A) 93.9

Q) Now consider COc1cc2nc(N(C)CCCNC(=O)C3CCCO3)nc(N)c2cc1OC (centres undefined) .
A) 58.9

Q) Now consider `Cc1c(CN2CCN(C(=O)[C@H](C)O)CC2)sc2c(N3CCOCC3)nc(-c3cnc(N)nc3)nc12` .
A) 78.2

Q) Now consider `CC(C)(C)c1cc(NC(=O)Nc2ccc(-c3cn4c(n3)sc3cc(OCCN5CCOCC5)ccc34)cc2)no1` .
A) 45.8

Q) Now consider `CC[C@H](CC[C@@H](C)[C@H]1CC[C@H]2[C@@H]3C\C=C/4C[C@@H](O)CC[C@]4(C)[C@H]3CC[C@]12C)C(C)C` .
A) 123

Q) Now consider `CC(C)c1cnn2c(NCc3ccccc3)cc(N[C@@H](CO)[C@H](O)CO)nc12` .
A) 120

Q) Now consider `CC1(C)O[C@@H]2C[C@H]3[C@@H]4CCC5=CC(=O)C=C[C@]5(C)[C@@]4(F)[C@@H](O)C[C@]3(C)[C@]2(C(=O)CO)O1` .
A) 109
